Test system: K4 kissing-loop RNA reporter
Experiment: apparent KD of K4 kissing-loop reporter; higher = weaker reporter binding
Details: Eterna round: R107; input ligand: theophylline 20 uM
experimental endpoint: apparent KD of K4 kissing-loop reporter (µM)
Express the result in µM but write the number alone.

>  <seq text>
UUUAACGAGUGAUGUUCGAAGAGUAAUGGUGAGGAUAUCGAUUUUUCGAGAAGGCGCCUCGAAGUGAUACGAAAGUAUCGCUUCG [FMN A 6]

>  <unit text>
µM

>  <measured result>
0.253

$$$$
>  <seq text>
AAGUGAUGUUGUAGUGAUGUUGUGAUGUUGCAGGAUAUAUAGUGAUGUAGAAGGGUAUGUACUUAUUUUUUUUUUGAGUUUUGUU [xgghzrmullin]

>  <unit text>
µM

>  <measured result>
0.0471

$$$$
>  <seq text>
GGAUUCACCAGUGAUGUUGGAGAAAACUCGAAGGAUAUGACGAAAGUCAGAAGGUCGUAGACUGGACAAAGUCCGGUCGGAUCCA [KL-SSFMN-A22]

>  <unit text>
µM

>  <measured result>
0.359

$$$$

Req: Please state recorded apparent KD of K4 kissing-loop reporter (tested on K4 kissing-loop RNA reporter) of AAAUUUUCAAGUGAUACCAGACAUCUCUAUUACAUUAAUAUAGCUAAGUGAUGUUUAGCAGUCCCUUGGCAGCACAAUUUAAUUA [JR_SSTheophyB_Sub013];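 also: bound reporter read as fluorescence of individual clusters on recovered sequencing chips by microscopy, with normalized cluster intensities fitted with a binding model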
Resp: 0.337

Req: Also GGGCCGCGCGCGGCCGCCACUCAGUGAUGUUGGGUGAGCUUUGCUGUGCGUGCUGUUUCGUGACGGAGGACCGGGCGCGCGGCCU [BDazzled 2] ?
Resp: 0.113

Req: Would you mind doing AUUAAUUUCAGAGGAUAUCGUAUUUAUAUUAUAUCUUUCCAUAUUUGCAGUGAUGUUGCAUUAAUUCGAGAAGGCUGAUUUAUAA [JR_Nu_ExcFMNB_Sub024] as well?
Resp: 0.0824

Req: Another: UGGACGUUAUACAAUAAGUAUAACUGGGAUACCAGUGACGAAAGUCACCCUUGGCAGCUCAACUGCCAGUGAUGUUGGUAGUCCA [Astros-Eli-mod#5]
Resp: 0.235

Req: Try the sequence GUGGGCUCGGGAGGAUAUGAGUCUAGUGAUGUUAGGCGGUCCAUGCGCGUGGCGCGUUAUGCCCUUUUAGAAGGCCCGAGCCCUC [#2 Exclusion - FMN B Attempt #24 (HarryS)]
Resp: 0.0864

Req: Same question, AUCUUGUUUGGAGGAUAUUCUUUAUUUGACAUAACCUUCUAUAAGGUGCAGUGAUGUUGCAAUAUAGGAGAAGGUCGAGUGAGAU [Exclusion FMN B GF 18] this time
Resp: 0.202

----------
Tested on: MS2 coat protein
Experiment: apparent KD of MS2 coat protein; designed switch direction (-1 OFF switch, 1 ON switch): 1; higher = weaker reporter binding
Details: Eterna round: R95; input ligand: FMN 200 uM
experimental endpoint: apparent KD of MS2 coat protein
Your answer should be a number followed by the unit of measure.

Look over these answered cases.
>  <seq text>
AAUUAUUAACAUGAGGAUCACCCAUGUAAAACAUGGAUUAACAAGCCUUUUCGUUUUUGCUCGUCUUAUAUUAUUAA [Bojan's Design] (puzzle: Sensor for hsa-mir-208a version 2)

>  <apparent KD of MS2 coat protein>
167 nM

$$$$
>  <seq text>
AGGUGGUGUGGAAAGGAUAUACGGUUGAGGACAUGAGGAUCACCCAUGUGGUAGAGGACGUAAGGGUAGAAGGUUCGGGAUUGGU [JR_SS@_Sub022] (puzzle: Same State 2)

>  <apparent KD of MS2 coat protein>
41.2 nM

$$$$
>  <seq text>
CAGCACUGUCGAGAGGAUAUGCGGUGGUAGACAUGAGGAUCACCCAUGUUAGCGACAGCAUCACGGCAGAAGGCUCUGCUGCUGC [Soteed Omei mod 41] (puzzle: Same State 2)

>  <apparent KD of MS2 coat protein>
37.3 nM

$$$$
>  <seq text>
CUCAAAACAAGUUGCAGUGUUCGUCUUUAACAUGAGGAUCACCCAUGUAAUAACCCAGUGGAAGCGCUCGGGCCACC [Ineson] (puzzle: Sensor for hsa-mir-208a)

>  <apparent KD of MS2 coat protein>
30.2 nM

$$$$
>  <seq text>
GCGCAGCUGGGUGAGGAUAUCGGUGGUAAAACAUGAGGAUCACCCAUGUCCGAAGCUCGGACUUCCGAGAAGGCGCCCGGCUGCA [Ridigea] (puzzle: Same State 2)

>  <apparent KD of MS2 coat protein>
13 nM

$$$$

Req: Field request: apparent KD of MS2 coat protein | item: UAAACUUCUUUUAGUGUAAUGCAAGUGAUACAUGAGGAUCACCCAUGUUUUGGAUCGUGUUAUUUUGUUCGUCUUAA [JR_SHM208A_Sub077] (puzzle: Sensor for hsa-mir-208a)
Resp: 33.2 nM

Req: Now the sequence AAAGCACAUGAGGAUCACCCAUGUGGAAAUAACACAGGAUAUCCGGCCGAAACUAAGGUGGGAGAAGGGUGACCUA [Aeriste] (puzzle: Same State 1)
Resp: 191 nM

Req: What do you have for GGAGGACAUGAGGAUCACCCAUGUAGAUGGGCGCUAGGAUAUGCGAGAGGGUAGAGAGAAGCAGAAGGAGUGGAAA [JR_SS1_Sub040] (puzzle: Same State 1) ?
Resp: 149 nM

Req: Next record, please: GGAGAGAGAGCACAGGAUAUGAGAGGAGAGACAUGAGGAUCACCCAUGUAAGAGAGAGAGGAGAGUUAGAAGGGUGAGAGAGAGG [Altered State 2-20 - Jieux - Same State 2] (puzzle: Same State 2)
Resp: 54.7 nM

Req: Similarly, CAAGGACGGACACAGGAUAUCCUCACCUACACAUGAGGAUCACCCAUGUCAUAAAAGAUGGUGCAGGAGAAGGGUGCGGCGUCUA [Bibesoxe] (puzzle: Same State 2) ?
Resp: 10.7 nM
